- Tested on: Wolbachia pipientis
- assay protocol: Anti-Wolbachia Cell-Based Screen
- Format: functional
- Set-up: scale not given: in the data most compounds retested in dose-response had high values
- experimental context: 5 µM
About 13,000 (27%) of roughly 48,000 compounds showed an effect of 50% or more. The list shows a part of the results.
observation type: Percent Effect (%)
Expressed in %, but write only the number.

>  <compound>
O=C1CC2(CCCCC2)CC(=O)N1CC(O)COCc1ccc(Cl)cc1 (stereo not drawn)

>  <Percent Effect (%)>
-11.1

$$$$
>  <compound>
Cc1nnc(CN(C)Cc2nc3c(s2)CCCC3)o1

>  <Percent Effect (%)>
-39.73

$$$$
>  <compound>
O=C(NCCN1CCOCC1)Nc1cc(F)ccc1-n1cccn1

>  <Percent Effect (%)>
-8.933

$$$$
>  <compound>
O=C1CC2(CCN(C(=O)c3ccccn3)C2)Nc2ccccc2N1 (stereo not drawn)

>  <Percent Effect (%)>
110.2

$$$$
>  <compound>
CC(C)=CCN1CC2(CCN(Cc3c(F)cccc3F)CC2)CC1=O

>  <Percent Effect (%)>
-3.567

$$$$
>  <compound>
CCCS(=O)(=O)N1CCC2(CCC(=O)N(Cc3ccccc3)C2)CC1

>  <Percent Effect (%)>
-5.429

$$$$
>  <compound>
CCCS(=O)(=O)N1CCC2(CCC(=O)N(CCc3ccncc3)C2)CC1

>  <Percent Effect (%)>
3.257

$$$$
>  <compound>
Cc1cnc(CNC(=O)NCc2cccnc2N(C)C)s1

>  <Percent Effect (%)>
-3.719

$$$$

Lab note: need Percent Effect for "Cc1cc(NC(=O)NCc2cccnc2OC(C)C)n(C)n1" on Wolbachia pipientis, anyone have it?
8.95

Lab note: need Percent Effect for "CC(C)N(Cc1nccn1C)C(=O)c1cnc(O)cn1" on Wolbachia pipientis, anyone have it?
-3.4

Lab note: need Percent Effect for "CNc1nc(C(=O)NCc2cccnc2N(C)C)cs1" on Wolbachia pipientis, anyone have it?
-18.64

Lab note: need Percent Effect for Cc1nc2cc(F)cc(C(=O)N3CCN(CC(C)O)CC3)c2nc1C (stereo not drawn) on Wolbachia pipientis, anyone have it?
-10.08

Lab note: need Percent Effect for "CC(C)NC(=O)[C@H]1C[C@@H]2[C@@H](C1)OCCN2Cc1cnn(C)c1.O=C(O)C(F)(F)F" on Wolbachia pipientis, anyone have it?
-20.9
